test: soluble on expression in E. coli; label from the status in PepcDB or PDB records
measurement.kind: soluble on expression in E. coli

Worked cases, answers included:
MNSRQMYEKIKERLVAHPHWTFRFDAKQDAMRVEDRRTKKGVTISLPGVIAKWHEQKDEAVREVVYYVEQTLKTMEEDAALSGNERNIYPVIRSASFPTETKEGVPLLFDDHTAETRIYYALDLGKTYRLIDERMLEKDKWSRERVKEIARFNVRSLPTPVKEARVADNVFYFVNPNDGYDASRILNESFLADMRARVEGTMAVAVPHQDVLVIADVRNDIGYDVLAQMTMSFFAGGRVPITALSFLYENGKLEPIFILGKKRRT | not soluble
MALGPLVTGLYDVQAFKFGDFVLKSGLSSPIYIDLRGIVSRPRLLSQVADILFQTAQNAGISFDTVCGVPYTALPLATVICSTNQIPMLIRRKETKDYGTKRLVEGTINPGETCLIIEDVVTSGSSVLETVEVLQKEGLKVTDAIVLLDREQGGKDKLQAHGIRLHSVCTLSKMLEILEQQKKVDAETVGRVKRFIQEAHHHHHH | soluble
MSLKDITLQVALPKFGYKENVKSFVLEVIAKDSSFWNFFSGNEARKQIAVLVDNTAPKINIISNSYQIEQGGAGAVVFKADDANLDKVYIETNKGKIFKATPYVKEGYYAALIAWDARDEEFRAFVIATDKAGNISKERIRYYFVNRKYRVSNINLTDKFLDGKIENLANQYAPKDNNLNRYEKFKFVNETLRNSNEKLIHEITSKVPEEKIDNFDLNLFLPLKNGMKVADFADHRYYSYNGQFVSDSYHMGLDLASVAQAPIISNNAGKVVFAAENGIYGLNLIVYHGFGVYSLYGHCSSKNVDLDEMINKQSIIGKTGTSGLALGDHLHFGVLVQGVETRPEQWQDKKWIENNIYNVLNDGKKIILGKNEGHHHHHH | not soluble
MGSDKIHHHHHHMVLMKKLMMKGNEAIAESAIRAGCRLYFAYPITPQSEIAEYMARRLPEVGGVFLQTESEIATVNMVYGAACTGKRVMTSTSSPGFSLMQEGISYIAGAELPCVFVDVVRGGPGLGNIQPSQGDYFQAVKGGGHGDYRLIVLAPSTLQEAVDLTQLAFDLADRYRNPVLILADGMIGQMMEPVELPEMRDLSTLPDHSDWALRGARNREPHRIAAFNIDPVGLEKMNKRLQEKYRLIEASEQRWEEYRVDGAEYLMVGYGTMGRILKSVVDSLREEGIPAGLFRPVTLWPFPKRRLKELAKKVQLIFVVEMSSGQMVEDVQISVEGKVPVHFYGRMGGVVPTPEEILFAFKEVRKWK | not soluble
MSLKKNFALEKKKELQEMTNSAVRRVLDFKKDPNKVIELLNFMARSPQYSFKNQMMVSSQYENSNFTMGSRQFKETMGLKVNENATPIKIVAPVMNTFFKRNDKLVQLRFANKEEKEKIKNKEIKTIQNVWYYKLVDVYDITQTNAKPEDFPEYYPDRRYNFYVKNTEVIDDIISANKKLLKDNNIHLIENHTYNQLGTSVGFAGKNLTGDKIVGYRDGLNKTEILHTLLHETTHAFYHQKENPEKTTELKEFEAEMTAYIVAKRFGVDTSEHTIKYVSDWTESMSKIEDIEQSIKTVSMYSSRIINDIEKQIDPVKIKEGHHHHHH | not soluble
MSLQIKSIKAYHVVQPFVDGPYRMSKGRQADAFDAVIVAITADSGLTGWGEMAPLGNFYSAAFPAGARAGVPEIAPHLIGHDPRGLASIGRLMDTVFKGHPYIKSALDMACWDLAARAAGVPLVTMLGGRESDMAETYRVVTHGTLDQMAALAKRIIAEGCRRLQVKVGGNVHDDIERVTTVASAVPKGTVIFCDANAGWTPYQARQFADATRGIDYTFEQPCTTIEENMSVRRMLDKPMVLDESVTSLEEMLEIHRLGAADGLTLKISRLGGVTRTRQIRDVAVDLGFMITVEDTGGAEIDTAAMAHLSLSTPQERRLHAIAFHEWVTVRTAFNAPPVTGSHMGIPDGPGLGIDVDPSLLGKPFFEIGEGHHHHHH | soluble

Query: Name the reported soluble on expression in E. coli value associated with the sequence MMELHRRVLEGDEAALKTLVSAAPNIGEVARDVVEHLSPGSYREGGPCAVCGGRLESVIASAVEEGYRLLRAYDIERFVVGVRLERGVAMAEEEVKLAAGAGYGESIKAEIRREVGKLLVSRGGVTVDFDSPEATLMVEFPGGGVDIQVNSLLYKARYWKLARNISQAYWPTPEGPRYFSVEQALWPVLKLTGGERLVVHAAGREDVDARMLGSGRPMIVEVKSPRRRRIPLEELEAAANAGGKGLVRFRFETAAKRAEVALYKEETARVRKVYRALVAVEGGVSEVDVEGLRRALEGAVIMQRTPSRVLHRRPDILRRRRLYSLDCSPLEGAPLMECILEAEGGLYIKELVSGDGGRTRPSFAEVLGREAVCIELDVVWVEHEAPAAPGLEHHHHHH
Reply: soluble

Query: Continue with MAHHHHHHMEDFLTKLKKISEQYNNLLLEKKIIDKRIANIGENIRKYEETREKSLEDVELKKNQLLKNKNKHIIMCQKMEQLNGKLNEILIRKQSIDDDEEKKVINKQIHTVNNTYVLLKHVQNLNDAMLKDEGNRYYKLITENIHSKSFSNRKTLNILNSFLRKSRANIQERGSEGAKSSTPPAAIHSANYFKIIQTNDIVQKLLDLFSGDHTALTIDKQQFLFVLLMNVLRKIACASEMAIPPEDCNSRHHVIYNFLHNKYILHL
Reply: soluble

Query: Continue with MTLIILEGPDCCFKSTVAAKLSKELKYPIIKGSSFELAKSGNEKLFEHFNKLADEDNVIIDRFVYSNLVYAKKFKDYSILTERQLRFIEDKIKAKAKVVYLHADPSVIKKRLRVRGDEYIEGKDIDSILELYREVMSNAGLHTYSWDTGQWSSDEIAKDIIFLVELEHHHHHH
Reply: soluble

Query: Continue with RVLQELHESEAQNRALLNAIPDMMLHVCREGTILDFRAGNGCAYAAFGGNLRGRTIADLLPPGAAAQFMAQVGHALATGTMMVCEYELEGPGGLNTHEARIVANGTGTVLAIVRDVT
Reply: not soluble

---

assay: soluble on expression in E. coli; label from the status in PepcDB or PDB records
measurement.kind: soluble on expression in E. coli

Worked cases, answers included:
YCKTIPMPDLAYSEISVIGKLIRALPEPCALHLANSSTVRYAQLFTVPPQVEICCNRGVNGIEGSLSTAIGYAAASSKLNFIIIGDLSFFYDMNALWNQNYGANIRILLLNNEGGEIFHTLPGMDKSSRSREFITAEHYTTAKGWAEERGFIYMKVTGEEELEEAMQPFTSPETRMQPMLLEVFTDKEKDTTLLREYYHGLKNKNE | not soluble
MGSDKIHHHHHHMEEKKALIIVDVQKAFDDKKWGERNNVKAEENISKILELWREKGWTVIYIQHTSDKPHSLFHPKNEGFAIKEIVKPMDEEVIITKTVNSSFIGTNLEEFLKLNEITTVVITGLTTPHCVSTTTRMSGNLGFDTYLISDATAAFGMRDQNDTYYDAATIHNISLATLHDEFATILTTDQLINDFIKTH | not soluble
GSSMVTGGMASKWDQKGMDIAYEEALLGYKEGGVPIGGCLINNKDGSVLGRGHNMRFQKGSATLHGEISTLENCGRLEGKVYKDTTLYTTLSPCDMCTGAIIMYGIPRCVIGENVNFKSKGEKYLQTRGHEVVVVDDERCKKLMKQFIDERPQDWFEDIGE | soluble
MGSDKIHHHHHHMARIARVIATGIPHHVTQRGNRRMPTFFNDEDYRAYIALLGEWCRKCGVDIWAYCLMPNHVHLIAVPETDDGLRRGIGEAHRRYSRMINFRENWRGHLWQGRFASFPMDESYLLAAARYVEMNPVRARLTPKAALWPWSSARAHLDRMDDELVKVAPLLELVGDWSLFLAGTGEEDQLNDIRKHERTGRPLGTEEFVERLESALERPLKKGKPGPKGNDN | not soluble
MASSLNEDPEGSRITYVKGDLFACPKTDSLAHCISEDCRMGAGIAVLFKKKFGGVQELLNQQKKSGEVAVLKRDGRYIYYLITKKRASHKPTYENLQKSLEAMKSHCLKNGVTDLSMPRIGCGLDRLQWENVSAMIEEVFEATDIKITVYTL | soluble

Moving on to another sequence below.
Query: Name the reported soluble on expression in E. coli value associated with the sequence MLKSEDADYEKAMKDKVGTGPQEYLKQLSDSLVKNQSAASVEVVSGATHSSDAFINYANQLIQAAQKADTTTISINNLAKMEDGTYKLEEQNYAHGYRVVFSMDVKDGKITKSDYNYVDKDGKLKSDDADYEKNMKAKSGTGPKEYIPALNKSLVEKQDVAAVDTVSGATNSSNQFKIYAAQLQNAAQNGNTDTIKVYNLVEAELEHHHHHH
Reply: soluble
